system: LXRa:RXRa (NR concentration 270 nM, RXRa partner concentration 90 nM); test: PBM binding z-score (relative to random genomic background probes); higher = stronger binding; sequences stand for … in GC…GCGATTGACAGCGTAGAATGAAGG
Examples of sequences with documented PBM binding z-score follow.

- query_sequence: "CTAACTAGGTCAGAACAGGACAGTGAAGGATGAT"
  PBM binding z-score: 0.974
- query_sequence: "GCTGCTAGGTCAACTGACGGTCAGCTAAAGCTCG"
  PBM binding z-score: 3.96
- query_sequence: "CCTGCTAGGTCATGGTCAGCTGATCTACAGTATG"
  PBM binding z-score: 2.68
- query_sequence: "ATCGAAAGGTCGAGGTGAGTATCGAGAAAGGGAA"
  PBM binding z-score: 3.37
- query_sequence: "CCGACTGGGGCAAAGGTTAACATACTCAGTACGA"
  PBM binding z-score: 2.19
- query_sequence: "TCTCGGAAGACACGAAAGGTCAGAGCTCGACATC"
  PBM binding z-score: 3.38
- query_sequence: "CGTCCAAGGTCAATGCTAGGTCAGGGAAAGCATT"
  PBM binding z-score: 5.42
- query_sequence: "CGTCCAAGGTCAGCAGCTCAGTGAAAGCGACGTG"
  PBM binding z-score: 3.06
- query_sequence: "GCTATTAGATGAAAGGGCAACCGAATGATTCTCG"
  PBM binding z-score: 0.345
- query_sequence: "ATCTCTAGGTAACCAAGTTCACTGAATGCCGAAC"
  PBM binding z-score: 1.87
- query_sequence: "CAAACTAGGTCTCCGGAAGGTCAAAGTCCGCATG"
  PBM binding z-score: 3.15
- query_sequence: "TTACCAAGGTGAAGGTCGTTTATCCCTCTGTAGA"
  PBM binding z-score: 1.55
- query_sequence: "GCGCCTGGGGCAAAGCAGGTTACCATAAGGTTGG"
  PBM binding z-score: -0.148
- query_sequence: "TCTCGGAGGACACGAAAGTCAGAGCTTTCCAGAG"
  PBM binding z-score: -0.603
- query_sequence: "CGTCAAAGTTCAAGGGAACGTAACAGAAAGCAGC"
  PBM binding z-score: 5.44
- query_sequence: "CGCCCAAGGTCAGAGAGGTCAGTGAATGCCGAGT"
  PBM binding z-score: 4.89
- query_sequence: "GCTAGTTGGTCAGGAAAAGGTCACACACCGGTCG"
  PBM binding z-score: 3.85
- query_sequence: "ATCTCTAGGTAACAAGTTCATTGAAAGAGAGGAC"
  PBM binding z-score: 1.89
- query_sequence: "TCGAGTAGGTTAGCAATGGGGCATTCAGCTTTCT"
  PBM binding z-score: 0.188
- query_sequence: "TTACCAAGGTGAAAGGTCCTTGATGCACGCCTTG"
  PBM binding z-score: 1.02
- query_sequence: "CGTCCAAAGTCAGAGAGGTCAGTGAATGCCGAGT"
  PBM binding z-score: 2.04
- query_sequence: "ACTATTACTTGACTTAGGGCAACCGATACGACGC"
  PBM binding z-score: 0.445
- query_sequence: "TCTTGTAGATCAAAGGTTAAGAATGCCGAAGCCT"
  PBM binding z-score: 2.06
- query_sequence: "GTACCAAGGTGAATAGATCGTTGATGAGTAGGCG"
  PBM binding z-score: 0.133
- query_sequence: "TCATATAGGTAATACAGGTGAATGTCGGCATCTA"
  PBM binding z-score: 1.39
- query_sequence: "TTACCAAGGTGAAAGGTCGTGGATGCACGCCTTG"
  PBM binding z-score: 3.62
- query_sequence: "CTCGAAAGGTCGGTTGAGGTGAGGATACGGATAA"
  PBM binding z-score: 1.84
- query_sequence: "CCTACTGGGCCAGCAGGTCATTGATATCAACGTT"
  PBM binding z-score: 0.958
- query_sequence: "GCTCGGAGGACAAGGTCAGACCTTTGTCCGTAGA"
  PBM binding z-score: 2.52
- query_sequence: "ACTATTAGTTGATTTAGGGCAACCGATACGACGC"
  PBM binding z-score: 0.0302
- query_sequence: "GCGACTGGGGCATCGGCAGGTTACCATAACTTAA"
  PBM binding z-score: -0.138
- query_sequence: "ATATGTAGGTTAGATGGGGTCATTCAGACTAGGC"
  PBM binding z-score: 5.67
- query_sequence: "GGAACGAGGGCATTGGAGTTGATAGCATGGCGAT"
  PBM binding z-score: 1.25
- query_sequence: "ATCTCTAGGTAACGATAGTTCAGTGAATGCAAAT"
  PBM binding z-score: 4.89
- query_sequence: "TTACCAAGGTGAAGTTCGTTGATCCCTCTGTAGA"
  PBM binding z-score: 1.09
- query_sequence: "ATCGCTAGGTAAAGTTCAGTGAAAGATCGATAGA"
  PBM binding z-score: 1.22
- query_sequence: "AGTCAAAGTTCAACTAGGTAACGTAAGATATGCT"
  PBM binding z-score: 6.16
- query_sequence: "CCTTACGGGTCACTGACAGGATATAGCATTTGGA"
  PBM binding z-score: 3.68
- query_sequence: "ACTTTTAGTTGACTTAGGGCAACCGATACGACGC"
  PBM binding z-score: 0.796
- query_sequence: "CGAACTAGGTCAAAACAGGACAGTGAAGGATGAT"
  PBM binding z-score: 3.07
- query_sequence: "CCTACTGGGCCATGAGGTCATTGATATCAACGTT"
  PBM binding z-score: 2.77
- query_sequence: "CATCGGAGGACAACAGGAGGTCAGAGCTGCCAGA"
  PBM binding z-score: 2.43
- query_sequence: "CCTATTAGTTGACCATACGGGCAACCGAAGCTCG"
  PBM binding z-score: 0.294
- query_sequence: "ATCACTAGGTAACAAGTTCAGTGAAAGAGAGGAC"
  PBM binding z-score: 0.942
- query_sequence: "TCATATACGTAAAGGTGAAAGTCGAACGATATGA"
  PBM binding z-score: 1.21
- query_sequence: "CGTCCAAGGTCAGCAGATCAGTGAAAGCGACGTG"
  PBM binding z-score: 3.1
- query_sequence: "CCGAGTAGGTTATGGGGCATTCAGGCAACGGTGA"
  PBM binding z-score: 0.351
- query_sequence: "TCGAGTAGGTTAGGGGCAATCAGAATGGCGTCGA"
  PBM binding z-score: 0.37
- query_sequence: "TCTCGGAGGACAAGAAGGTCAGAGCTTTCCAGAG"
  PBM binding z-score: 1.14
- query_sequence: "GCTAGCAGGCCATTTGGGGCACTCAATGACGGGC"
  PBM binding z-score: -0.719
- query_sequence: "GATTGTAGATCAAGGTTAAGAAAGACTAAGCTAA"
  PBM binding z-score: 0.349

The values you see were collected from the supplement of paper PMC6555819.
